# Test system: CCR5
# test: CCR5 serine phosphorylation in monocytes (anti-phosphoserine IP, anti-CCR5 immunoblot)
# Assay type: cell-based, human
# reported_conditions: human monocytes, 37° C.
readout_type: serine phosphorylation of CCR5

| molecule | reading |
| --- | --- |
| RANTES: chemokine that activates multiple receptors including CCR5 (protein, UniProt P13501 24-91, looked up) C-C motif chemokine 5: SPYSSDTTPCCFAYIARPLPRAHIKEYFYTSGKCSNPAVVFVTRKNRQVCANPEKKWVREYINSLEMS | rapidly phosphorylated |
| MIP-1β: chemokine, CCR5 agonist (protein) APMGSDPPTACCFSYTARKLPRNFVVDYYETSSLCSQPAVVFQTKRSKQVCADPSESWVQEYVYDLELN | rapidly phosphorylated |
| MIP-1α: chemokine that activates multiple receptors including CCR5 (protein, UniProt P10147 24-92, looked up) C-C motif chemokine 3: SLAADTPTACCFSYTSRQIPQNFIADYFETSSQCSKPGVIFLTKRSRQVCADPSEEWVQKYVSDLELSA | rapidly phosphorylated |
